meta.source: paper PMC4301037

test_target: bovine GRK5 (Bos taurus, UniProt P43249)
Construct: when using full-length kinases as the receptor[37] instead of isolated kinase domains; made in house
Sequence (P43249 whole entry, the tested form may be a part): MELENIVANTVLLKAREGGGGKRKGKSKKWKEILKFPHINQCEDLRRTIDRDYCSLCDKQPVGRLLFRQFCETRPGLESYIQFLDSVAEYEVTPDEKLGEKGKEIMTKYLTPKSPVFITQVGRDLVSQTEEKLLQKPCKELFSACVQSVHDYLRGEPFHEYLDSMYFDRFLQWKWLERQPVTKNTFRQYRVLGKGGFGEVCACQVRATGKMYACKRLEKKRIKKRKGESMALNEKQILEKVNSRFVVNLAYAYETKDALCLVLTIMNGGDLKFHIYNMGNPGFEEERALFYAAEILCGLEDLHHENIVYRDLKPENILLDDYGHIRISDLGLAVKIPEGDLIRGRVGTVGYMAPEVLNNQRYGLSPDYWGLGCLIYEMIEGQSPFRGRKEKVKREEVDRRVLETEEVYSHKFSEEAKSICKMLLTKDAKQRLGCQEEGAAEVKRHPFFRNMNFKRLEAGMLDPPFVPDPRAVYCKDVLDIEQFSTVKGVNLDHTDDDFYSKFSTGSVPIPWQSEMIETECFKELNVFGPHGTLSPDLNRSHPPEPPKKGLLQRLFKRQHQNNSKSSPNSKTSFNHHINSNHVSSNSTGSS
assay_info: Primary DSF inhibitor screen, GRK5
Type: binding
conditions_used: 10 μM compound, 2 μM kinase, relative to DMSO control; read-out: ΔTm, primary screen, GRK5
measured_metric: ΔTm at 10 µM (°C)
Please give a number only; it is taken to be in °C.

Consider the worked cases shown below.
{"compound": "CC(C)=Cc1cccc2c1C(=NNc1ccc(S(N)(=O)=O)cc1)C(=O)N2 [GW396574X]", "ΔTm at 10 µM, °C": 2.08}
{"compound": "O=c1c(-c2ccc(O)cc2)coc2cc(O)cc(O)c12 [Genistein, 4',5,7-Trihydroxyisoflavone]", "ΔTm at 10 µM, °C": 2.46}
{"compound": "O=C(O)c1ccc2c3c1cccc3c(=O)n1c3ccccc3nc21", "ΔTm at 10 µM, °C": 3.24}
{"compound": "CC1=C(C(=O)Nc2ccc3[nH]ncc3c2)C(c2ccc3ccccc3c2)CC(=O)N1 (centres unmarked) [GSK270822A]", "ΔTm at 10 µM, °C": 3.92}
{"compound": "CCNC(=O)O[C@H]1CN[C@H](C#Cc2cc3ncnc(Nc4ccc(OCc5cccc(F)c5)c(Cl)c4)c3s2)C1 [GSK192082A]", "ΔTm at 10 µM, °C": 2.97}
{"compound": "Nc1ncnc2occ(-c3ccc(NC(=O)Nc4cc(C(F)(F)F)ccc4F)cc3)c12 [GW770249X]", "ΔTm at 10 µM, °C": 3.19}
{"compound": "COc1cc(N2CCN(C(C)C)CC2)ccc1Nc1nc(Nc2ccc(F)cc2C(N)=O)c2cc[nH]c2n1 [GSK1220512A]", "ΔTm at 10 µM, °C": 3.05}

Now for the compound whose ΔTm at 10 µM we want.
Fill blank: measured ΔTm at 10 µM of the compound `Cn1cc(C2=C(c3ccc(Cl)cc3Cl)C(=O)NC2=O)c2ccccc21` is ____.
2.78
